// cross-study collection: Ki for UniProt P18031
Sequence (P18031 whole entry): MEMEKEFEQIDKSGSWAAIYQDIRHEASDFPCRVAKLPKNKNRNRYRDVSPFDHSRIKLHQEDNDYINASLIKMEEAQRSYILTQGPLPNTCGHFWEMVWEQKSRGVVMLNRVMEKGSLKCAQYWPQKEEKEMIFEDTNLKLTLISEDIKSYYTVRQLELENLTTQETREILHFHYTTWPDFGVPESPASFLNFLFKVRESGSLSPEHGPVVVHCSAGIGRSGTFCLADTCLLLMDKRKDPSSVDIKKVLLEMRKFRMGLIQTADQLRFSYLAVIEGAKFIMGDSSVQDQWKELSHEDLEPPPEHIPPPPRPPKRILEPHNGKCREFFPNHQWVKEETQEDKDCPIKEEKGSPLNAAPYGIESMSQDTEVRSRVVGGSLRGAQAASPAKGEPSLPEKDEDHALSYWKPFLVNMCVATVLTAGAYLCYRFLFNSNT
quantity.kind: Ki (µM)

Here is how some compounds turned out for Ki.
> print(dat)
                                   compound  result.unit  observed
1  CCC(CC(=O)O)N(C(=O)C(=O)O)c1ccc(C[C@H](NC(=O)OC(C)(C)C)C(=O)NCCCCOc2cccc(O)c2C(=O)OC)cc1 (some centres undefined)           µM       1.8
2  COC(=O)c1c(O)cccc1OCCCCNC(=O)C(Cc1ccc(OC(C(=O)O)C(=O)NC2CC2)cc1)NC(=O)OC(C)(C)C (centres undefined)           µM       8.4

a = O=c1c(Cc2ccc(-c3ccccc3)cc2)c(-c2ccc(O)cc2)oc2cc(O)ccc12
b = NC(=O)[C@H](Cc1ccc(C(F)(F)P(=O)(O)O)cc1)NC(=O)[C@H](Cc1ccccc1)NC(=O)Cc1ccc(C(F)(F)P(=O)(O)O)cc1
Task: I need your help: which of the pair a , b has higher Ki? Output the label that corresponds to your choice.
Output: a
(a: 29.1 µM, b: 0.0017 µM)

I = COc1ccc(-c2sc(C(=O)O)c(OCC(=O)O)c2Br)cc1
II = COC(=O)c1c(O)cccc1OCCCCNC(=O)[C@H](Cc1ccc(OC(C(=O)O)C(=O)NC2CC2)cc1)NC(=O)OC(C)(C)C (some centres undefined)
Task: Of I and II , whose reported Ki is numerically smaller? Answer = label.
Output: I
